Origin of the recorded values: the supplement of paper PMC10307832

tested on: NCI-H441; assay: relative viability (nuclei count vs DMSO), 5 days (fraction); higher = more cells survive; details: first compound 0.1 µM
# relative viability per entry
MEASUREMENT TYPE: relative viability

molecule="CCN(CC)CCCCNc1ncc2cc(-c3cc(OC)cc(OC)c3)c(NC(=O)NC(C)(C)C)nc2n1 + CC(C)C[C@H](NC(=O)[C@H](Cc1ccccc1)NC(=O)c1cnccn1)B(O)O [Bortezomib] (partner 0.002 µM)" value_observed=0.817
molecule="CCN(CC)CCCCNc1ncc2cc(-c3cc(OC)cc(OC)c3)c(NC(=O)NC(C)(C)C)nc2n1 + NC(=O)Nc1cc(-c2cccc(F)c2)sc1C(=O)N[C@H]1CCCNC1 [AZD7762] (partner 0.2 µM)" value_observed=1.1
molecule="O=c1cc(N2CCOCC2)oc2c(-c3cccc4c3sc3ccccc34)cccc12 + Cc1nc(Nc2ncc(C(=O)Nc3c(C)cccc3Cl)s2)cc(N2CCN(CCO)CC2)n1 [Dasatinib] (partner 0.075 µM)" value_observed=0.594

* * *

# relative viability per entry
tested on: UMC-11; test: relative viability (nuclei count vs DMSO), 5 days (fraction); higher = more cells survive; details: first compound 0.8 µM
MEASUREMENT TYPE: relative viability

compound="O=c1cc(-c2cccc3c2Sc2ccccc2S3)oc(N2CCOCC2)c1 + CS(=O)(=O)N1CCN(Cc2cc3nc(-c4cccc5[nH]ncc45)nc(N4CCOCC4)c3s2)CC1 [Pictilisib] (partner 1 µM)" measurement_type="relative viability" value_observed=0.992
compound="O=c1cc(-c2cccc3c2Sc2ccccc2S3)oc(N2CCOCC2)c1 + Cc1nc(Nc2ncc(C(=O)Nc3c(C)cccc3Cl)s2)cc(N2CCN(CCO)CC2)n1 [Dasatinib] (partner 0.075 µM)" measurement_type="relative viability" value_observed=0.535
compound="O=c1cc(-c2cccc3c2Sc2ccccc2S3)oc(N2CCOCC2)c1 + COc1cccc2cc(-c3nc([C@H]4CC[C@H](C(=O)O)CC4)n4ncnc(N)c34)[nH]c12 [OSI-027] (partner 0.5 µM)" measurement_type="relative viability" value_observed=0.457

* * *

system: LU99A; assay: relative viability (nuclei count vs DMSO), 5 days (fraction); higher = more cells survive; conditions: first compound 2.53 µM
# relative viability per entry
MEASUREMENT TYPE: relative viability

compound="COc1nc(C)cnc1NS(=O)(=O)c1cccnc1-c1ccc(-c2nnco2)cc1 [Zibotentan] + CS(=O)(=O)CCNCc1ccc(-c2ccc3ncnc(Nc4ccc(OCc5cccc(F)c5)c(Cl)c4)c3c2)o1 [Lapatinib] (partner 2 µM)" measurement_type="relative viability" value_observed=0.949
compound="COc1nc(C)cnc1NS(=O)(=O)c1cccnc1-c1ccc(-c2nnco2)cc1 [Zibotentan] + N=C(N)NC(=N)NCCc1ccccc1 [Phenformin] (partner 250 µM)" measurement_type="relative viability" value_observed=0.897
compound="COc1nc(C)cnc1NS(=O)(=O)c1cccnc1-c1ccc(-c2nnco2)cc1 [Zibotentan] + Cc1nc(NC(=O)N2CCC[C@H]2C(N)=O)sc1-c1ccnc(C(C)(C)C(F)(F)F)c1 [Alpelisib] (partner 2 µM)" measurement_type="relative viability" value_observed=0.58

* * *

system: NCI-H1915; assay: relative viability (nuclei count vs DMSO), 5 days (fraction); higher = more cells survive; conditions: first compound 0.03162 µM
MEASUREMENT TYPE: relative viability

molecule="O=c1cc(N2CCOCC2)oc2c(-c3cccc4c3sc3ccccc34)cccc12 + Nc1ncn([C@H]2C[C@H](O)[C@@H](CO)O2)c(=O)n1 [Decitabine] (partner 2 µM)" test_system=NCI-H1915 measurement_type="relative viability" value_observed=0.253
molecule="CCN(CC)CCCCNc1ncc2cc(-c3cc(OC)cc(OC)c3)c(NC(=O)NC(C)(C)C)nc2n1 + CC(=O)Nc1cccc(-n2c(=O)n(C3CC3)c(=O)c3c(Nc4ccc(I)cc4F)n(C)c(=O)c(C)c32)c1 [Trametinib] (partner 0.02 µM)" test_system=NCI-H1915 measurement_type="relative viability" value_observed=0.294
molecule="CCN(CC)CCCCNc1ncc2cc(-c3cc(OC)cc(OC)c3)c(NC(=O)NC(C)(C)C)nc2n1 + Cc1nc(Nc2ncc(C(=O)Nc3c(C)cccc3Cl)s2)cc(N2CCN(CCO)CC2)n1 [Dasatinib] (partner 0.075 µM)" test_system=NCI-H1915 measurement_type="relative viability" value_observed=0.306
molecule="CCN(CC)CCCCNc1ncc2cc(-c3cc(OC)cc(OC)c3)c(NC(=O)NC(C)(C)C)nc2n1 + N=C(N)NC(=N)NCCc1ccccc1 [Phenformin] (partner 250 µM)" test_system=NCI-H1915 measurement_type="relative viability" value_observed=0.377
molecule="O=c1cc(N2CCOCC2)oc2c(-c3cccc4c3sc3ccccc34)cccc12 + NC(=O)Nc1cc(-c2cccc(F)c2)sc1C(=O)N[C@H]1CCCNC1 [AZD7762] (partner 0.2 µM)" test_system=NCI-H1915 measurement_type="relative viability" value_observed=0.725
molecule="O=c1cc(N2CCOCC2)oc2c(-c3cccc4c3sc3ccccc34)cccc12 + CCNC(=O)c1noc(-c2cc(C(C)C)c(O)cc2O)c1-c1ccc(CN2CCOCC2)cc1 [Luminespib] (partner 0.01 µM)" test_system=NCI-H1915 measurement_type="relative viability" value_observed=0.831
molecule="O=c1cc(N2CCOCC2)oc2c(-c3cccc4c3sc3ccccc34)cccc12 + O=C(c1cc(Cc2n[nH]c(=O)c3ccccc23)ccc1F)N1CCN(C(=O)C2CC2)CC1 [Olaparib] (partner 8 µM)" test_system=NCI-H1915 measurement_type="relative viability" value_observed=0.269

* * *

system: LXF-289; experiment: relative viability (nuclei count vs DMSO), 5 days (fraction); higher = more cells survive; conditions: first compound 1 µM
Each record is given yes (1) if its reported relative viability is strictly below 0.8. Records at or above 0.8 are given no (0).

compound="O=c1cc(N2CCOCC2)oc2c(-c3cccc4c3sc3ccccc34)cccc12 + O=C(c1cc(Cc2n[nH]c(=O)c3ccccc23)ccc1F)N1CCN(C(=O)C2CC2)CC1 [Olaparib] (partner 8 µM)" label="no (0)"
compound="O=c1cc(N2CCOCC2)oc2c(-c3cccc4c3sc3ccccc34)cccc12 + Cc1nc(Nc2ncc(C(=O)Nc3c(C)cccc3Cl)s2)cc(N2CCN(CCO)CC2)n1 [Dasatinib] (partner 0.075 µM)" label="yes (1)"
compound="CCN(CC)CCCCNc1ncc2cc(-c3cc(OC)cc(OC)c3)c(NC(=O)NC(C)(C)C)nc2n1 + CS(=O)(=O)N1CCN(Cc2cc3nc(-c4cccc5[nH]ncc45)nc(N4CCOCC4)c3s2)CC1 [Pictilisib] (partner 1 µM)" label="yes (1)"
compound="O=c1cc(N2CCOCC2)oc2c(-c3cccc4c3sc3ccccc34)cccc12 + CS(=O)(=O)CCNCc1ccc(-c2ccc3ncnc(Nc4ccc(OCc5cccc(F)c5)c(Cl)c4)c3c2)o1 [Lapatinib] (partner 2 µM)" label="no (0)"
compound="CCN(CC)CCCCNc1ncc2cc(-c3cc(OC)cc(OC)c3)c(NC(=O)NC(C)(C)C)nc2n1 + NC(=O)Nc1cc(-c2cccc(F)c2)sc1C(=O)N[C@H]1CCCNC1 [AZD7762] (partner 0.2 µM)" label="no (0)"
compound="CCN(CC)CCCCNc1ncc2cc(-c3cc(OC)cc(OC)c3)c(NC(=O)NC(C)(C)C)nc2n1 + CC(=O)Nc1cccc(-n2c(=O)n(C3CC3)c(=O)c3c(Nc4ccc(I)cc4F)n(C)c(=O)c(C)c32)c1 [Trametinib] (partner 0.02 µM)" label="yes (1)"
compound="O=c1cc(N2CCOCC2)oc2c(-c3cccc4c3sc3ccccc34)cccc12 + O=C(CCCCCCC(=O)Nc1ccccc1)NO [Vorinostat] (partner 1 µM)" label="no (0)"
compound="CCN(CC)CCCCNc1ncc2cc(-c3cc(OC)cc(OC)c3)c(NC(=O)NC(C)(C)C)nc2n1 + COc1cc2c(Oc3ccc(NC(=O)C4(C(=O)Nc5ccc(F)cc5)CC4)cc3F)ccnc2cc1OCCCN1CCOCC1 [Foretinib] (partner 0.25 µM)" label="no (0)"
compound="CCN(CC)CCCCNc1ncc2cc(-c3cc(OC)cc(OC)c3)c(NC(=O)NC(C)(C)C)nc2n1 + COc1cccc2cc(-c3nc([C@H]4CC[C@H](C(=O)O)CC4)n4ncnc(N)c34)[nH]c12 [OSI-027] (partner 0.5 µM)" label="yes (1)"
compound="O=c1cc(N2CCOCC2)oc2c(-c3cccc4c3sc3ccccc34)cccc12 + Cc1cc(Nc2cc(N3CCN(C)CC3)nc(Sc3ccc(NC(=O)C4CC4)cc3)n2)n[nH]1 [Tozasertib] (partner 0.1 µM)" label="yes (1)"
compound="CCN(CC)CCCCNc1ncc2cc(-c3cc(OC)cc(OC)c3)c(NC(=O)NC(C)(C)C)nc2n1 + Cc1cc(Nc2cc(N3CCN(C)CC3)nc(Sc3ccc(NC(=O)C4CC4)cc3)n2)n[nH]1 [Tozasertib] (partner 0.1 µM)" label="yes (1)"
compound="CCN(CC)CCCCNc1ncc2cc(-c3cc(OC)cc(OC)c3)c(NC(=O)NC(C)(C)C)nc2n1 + O=C(c1cc(Cc2n[nH]c(=O)c3ccccc23)ccc1F)N1CCN(C(=O)C2CC2)CC1 [Olaparib] (partner 8 µM)" label="no (0)"
